Ref: patent US20160177307

- System: VEGF-121 (Homo sapiens), P15692-9
- Sequence: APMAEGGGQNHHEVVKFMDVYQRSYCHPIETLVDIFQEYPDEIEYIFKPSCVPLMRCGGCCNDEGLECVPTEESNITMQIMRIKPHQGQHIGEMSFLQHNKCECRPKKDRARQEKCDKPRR
- assay-remarks: filter
- experimental-conditions: as 4867-31_192; 2'-OMe 1; PS 25

residue-string: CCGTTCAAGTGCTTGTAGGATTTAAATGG [4867-31_475]
target-entity: VEGF-121 (Homo sapiens), P15692-9
value-unit: nM
Kd: 0.026

###

- System: VEGF-164 (Rattus norvegicus), P16612-2
- Sequence: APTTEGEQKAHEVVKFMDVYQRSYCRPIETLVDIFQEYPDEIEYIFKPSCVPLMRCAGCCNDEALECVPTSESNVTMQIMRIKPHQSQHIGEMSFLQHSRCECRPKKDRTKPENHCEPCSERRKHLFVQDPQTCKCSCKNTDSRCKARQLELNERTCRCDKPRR
- assay-remarks: filter
- experimental-conditions: P=Nap-dU
Please map values of Kd to classes as shown: bottom end = under 0.09 nM, midrange = from 0.09 nM up to 0.6 nM, top end = 0.6 nM and over

residue-string: TCAATCAGCCGTTCAAGTGCTTGTAGGATTTAAATGG [4867-31_23]
label: top end

residue-string: TCAATCAGCCGTTCAAGTGCTTGTAGGATTTAAATG [4867-31_24]
label: top end

residue-string: GTTCAAGTGCTTGTAGGATTTAAATGGA [4867-31_61]
label: top end

residue-string: AGCCGTTCAAGTGCTTGTAGGATTTAAATGGAA [4867-31_37]
label: bottom end

residue-string: CGTTCAAGTGCTTGTAGGATTTAAATGGA [4867-31_60]
label: top end

residue-string: CAGCCGTTCAAGTGCTTGTAGGATTTAAATGGAAT [4867-31_30]
label: midrange

residue-string: TCAGCCGTTCAAGTGCTTGTAGGATTTAAATGGA [4867-31_41]
label: bottom end

residue-string: AATCAGCCGTTCAAGTGCTTGTAGGATTTAAATGGAA [4867-31_33]
label: bottom end

residue-string: CCGTTCAAGTGCTTGTAGGATTTAAATGGA [4867-31_59]
label: midrange

residue-string: CAGCCGTTCAAGTGCTTGTAGGATTTAAATG [4867-31_45]
label: top end

residue-string: CAGCCGTTCAAGTGCTTGTAGGATTTAAATGG [4867-31_44]
label: midrange

residue-string: ATCAGCCGTTCAAGTGCTTGTAGGATTTAAATGGAAT [4867-31_28]
label: bottom end

residue-string: AGCCGTTCAAGTGCTTGTAGGATTTAAATGGAAT [4867-31_31]
label: midrange

residue-string: AGCCGTTCAAGTGCTTGTAGGATTTAAATG [4867-31_52]
label: midrange

residue-string: TCAATCAGCCGTTCAAGTGCTTGTAGGATTTAAAT [4867-31_25]
label: top end

residue-string: TCAGCCGTTCAAGTGCTTGTAGGATTTAAATGGAA [4867-31_35]
label: bottom end

residue-string: ATCAGCCGTTCAAGTGCTTGTAGGATTTAAATGGA [4867-31_40]
label: midrange

residue-string: CAGCCGTTCAAGTGCTTGTAGGATTTAAATGGAA [4867-31_36]
label: bottom end

residue-string: GCCGTTCAAGTGCTTGTAGGATTTAAATGGA [4867-31_58]
label: midrange
